The following compounds are shown together with reported MIC values.
tested on: S. aureus 1126387; assay type: cell-based, Staphylococcus aureus; conditions: 1126387, 20 h
Where a SMILES comes first, the peptide text is derived from it. [ ]: non-standard residue; d: D form. The star is where a group is joined. d(aIle) = CC[C@H](C)[C@@H](N)C(=O)O; dDab = NCC[C@@H](N)C(=O)O; Octanoyl = CCCCCCCC(=O)*; Dab = NCC[C@H](N)C(=O)O

Sample answers from the record:
CCCCCCCC(=O)N[C@@H](C(=O)N[C@H](CCN)C(=O)NCC(=O)N[C@H](CO)C(=O)N[C@H](Cc1c[nH]c2ccccc12)C(=O)N[C@@H](CO)C(=O)N[C@@H](CCN)C(=O)N[C@H](CCN)C(=O)N[C@@H](Cc1c[nH]c2ccccc12)C(=O)N[C@@H](CCC(=O)O)C(=O)N[C@H](C(=O)N[C@@H](C(=O)N[C@@H](C)C(=O)O)[C@@H](C)CC)C(C)C)C(C)C [Oct-TriA5] (Octanoyl-[dV][dDab]G[dS][dW]S[Dab][dDab]WEV[d(aIle)]A-OH) : 8 µg/mL
CCCCCCCC(=O)N[C@@H](C(=O)N[C@H](CCN)C(=O)NCC(=O)N[C@H](CO)C(=O)N[C@H](Cc1c[nH]c2ccccc12)C(=O)N[C@@H](CO)C(=O)N[C@@H](CCN)C(=O)N[C@H](CCN)C(=O)N[C@@H](C)C(=O)N[C@@H](CCC(=O)O)C(=O)N[C@H](C(=O)N[C@@H](C(=O)N[C@@H](C)C(=O)O)[C@@H](C)CC)C(C)C)C(C)C [Oct-Ala9] (Octanoyl-[dV][dDab]G[dS][dW]S[Dab][dDab]AEV[d(aIle)]A-OH) : >64 µg/mL

Q: Recall and state the measured MIC for CCCCCCCC(=O)N[C@@H](C(=O)N[C@H](CCN)C(=O)NCC(=O)N[C@H](CO)C(=O)N[C@H](Cc1c[nH]c2ccccc12)C(=O)N[C@@H](CO)C(=O)N[C@@H](CCN)C(=O)N[C@H](CCN)C(=O)N[C@H](C(=O)N[C@@H](CCC(=O)O)C(=O)N[C@H](C(=O)N[C@@H](C(=O)N[C@@H](C)C(=O)O)[C@@H](C)CC)C(C)C)[C@@H](C)CC)C(C)C [Oct-Ile9] (Octanoyl-[dV][dDab]G[dS][dW]S[Dab][dDab]IEV[d(aIle)]A-OH) .
Ans: >64 µg/mL

----------
Listing of recorded MIC by entry.
tested on: E. coli ATCC 25922; assay type: cell-based, Escherichia coli; details: ATCC 25922, 20 h
Where a SMILES comes first, the peptide text is derived from it. [ ]: non-standard residue; d: D form. The star is where a group is joined. d(aIle) = CC[C@H](C)[C@@H](N)C(=O)O; dDab = NCC[C@@H](N)C(=O)O; Octanoyl = CCCCCCCC(=O)*; Dab = NCC[C@H](N)C(=O)O
Value expressed in µg/mL; do not type the unit.

CCCCCCCC(=O)N[C@@H](C(=O)N[C@H](CCN)C(=O)NCC(=O)N[C@H](CO)C(=O)N[C@H](Cc1c[nH]c2ccccc12)C(=O)N[C@@H](CO)C(=O)N[C@@H](CCN)C(=O)N[C@H](CCN)C(=O)N[C@@H](Cc1c[nH]c2ccccc12)C(=O)N[C@@H](CCC(=O)O)C(=O)N[C@H](C(=O)N[C@@H](C(=O)N[C@@H](C)C(=O)O)[C@@H](C)CC)C(C)C)C(C)C [Oct-TriA5] (Octanoyl-[dV][dDab]G[dS][dW]S[Dab][dDab]WEV[d(aIle)]A-OH) : 2

Let us move to another entry and its MIC.
Q: Identify the reported MIC for the following entry. CCCCCCCC(=O)N[C@@H](C(=O)N[C@H](CCN)C(=O)NCC(=O)N[C@H](CO)C(=O)N[C@H](Cc1c[nH]c2ccccc12)C(=O)N[C@@H](CO)C(=O)N[C@@H](CCN)C(=O)N[C@H](CCN)C(=O)N[C@@H](Cc1c[nH]cn1)C(=O)N[C@@H](CCC(=O)O)C(=O)N[C@H](C(=O)N[C@@H](C(=O)N[C@@H](C)C(=O)O)[C@@H](C)CC)C(C)C)C(C)C [Oct-His9] (Octanoyl-[dV][dDab]G[dS][dW]S[Dab][dDab]HEV[d(aIle)]A-OH)
Ans: 16

----------
system: P. aeruginosa 1218019; type: cell-based, Pseudomonas aeruginosa; details: 1218019, 20 h
Where a SMILES comes first, the peptide text is derived from it. [ ]: non-standard residue; d: D form. The star is where a group is joined. d(aIle) = CC[C@H](C)[C@@H](N)C(=O)O; dDab = NCC[C@@H](N)C(=O)O; Octanoyl = CCCCCCCC(=O)*; Dab = NCC[C@H](N)C(=O)O
Property: MIC

# annotated cases, reported MIC shown
CCCCCCCC(=O)N[C@@H](C(=O)N[C@H](CCN)C(=O)NCC(=O)N[C@H](CO)C(=O)N[C@H](Cc1c[nH]c2ccccc12)C(=O)N[C@@H](CO)C(=O)N[C@@H](CCN)C(=O)N[C@H](CCN)C(=O)N[C@@H](Cc1ccc(O)cc1)C(=O)N[C@@H](CCC(=O)O)C(=O)N[C@H](C(=O)N[C@@H](C(=O)N[C@@H](C)C(=O)O)[C@@H](C)CC)C(C)C)C(C)C [Oct-Tyr9] (Octanoyl-[dV][dDab]G[dS][dW]S[Dab][dDab]YEV[d(aIle)]A-OH) : 4 µg/mL
CCCCCCCC(=O)N[C@@H](C(=O)N[C@H](CCN)C(=O)NCC(=O)N[C@H](CO)C(=O)N[C@H](Cc1c[nH]c2ccccc12)C(=O)N[C@@H](CO)C(=O)N[C@@H](CCN)C(=O)N[C@H](CCN)C(=O)NCC(=O)N[C@@H](CCC(=O)O)C(=O)N[C@H](C(=O)N[C@@H](C(=O)N[C@@H](C)C(=O)O)[C@@H](C)CC)C(C)C)C(C)C [Oct-Gly9] (Octanoyl-[dV][dDab]G[dS][dW]S[Dab][dDab]GEV[d(aIle)]A-OH) : >64 µg/mL
CCCCCCCC(=O)N[C@@H](C(=O)N[C@H](CCN)C(=O)NCC(=O)N[C@H](CO)C(=O)N[C@H](Cc1c[nH]c2ccccc12)C(=O)N[C@@H](CO)C(=O)N[C@@H](CCN)C(=O)N[C@H](CCN)C(=O)N[C@@H](CO)C(=O)N[C@@H](CCC(=O)O)C(=O)N[C@H](C(=O)N[C@@H](C(=O)N[C@@H](C)C(=O)O)[C@@H](C)CC)C(C)C)C(C)C [Oct-Ser9] (Octanoyl-[dV][dDab]G[dS][dW]S[Dab][dDab]SEV[d(aIle)]A-OH) : 32 µg/mL
CCCCCCCC(=O)N[C@@H](C(=O)N[C@H](CCN)C(=O)NCC(=O)N[C@H](CO)C(=O)N[C@H](Cc1c[nH]c2ccccc12)C(=O)N[C@@H](CO)C(=O)N[C@@H](CCN)C(=O)N[C@H](CCN)C(=O)N[C@@H](CCN)C(=O)N[C@@H](CCC(=O)O)C(=O)N[C@H](C(=O)N[C@@H](C(=O)N[C@@H](C)C(=O)O)[C@@H](C)CC)C(C)C)C(C)C [Oct-Dab9] (Octanoyl-[dV][dDab]G[dS][dW]S[Dab][dDab][Dab]EV[d(aIle)]A-OH) : >64 µg/mL
CCCCCCCC(=O)N[C@@H](C(=O)N[C@H](CCN)C(=O)NCC(=O)N[C@H](CO)C(=O)N[C@H](Cc1c[nH]c2ccccc12)C(=O)N[C@@H](CO)C(=O)N[C@@H](CCN)C(=O)N[C@H](CCN)C(=O)N[C@@H](Cc1c[nH]cn1)C(=O)N[C@@H](CCC(=O)O)C(=O)N[C@H](C(=O)N[C@@H](C(=O)N[C@@H](C)C(=O)O)[C@@H](C)CC)C(C)C)C(C)C [Oct-His9] (Octanoyl-[dV][dDab]G[dS][dW]S[Dab][dDab]HEV[d(aIle)]A-OH) : 2 µg/mL

Could you now look at the following molecule, please?
Q: Quote MIC reported for CCCCCCCC(=O)N[C@@H](C(=O)N[C@H](CCN)C(=O)NCC(=O)N[C@H](CO)C(=O)N[C@H](Cc1c[nH]c2ccccc12)C(=O)N[C@@H](CO)C(=O)N[C@@H](CCN)C(=O)N[C@H](CCN)C(=O)N[C@@H](CCC(=O)O)C(=O)N[C@@H](CCC(=O)O)C(=O)N[C@H](C(=O)N[C@@H](C(=O)N[C@@H](C)C(=O)O)[C@@H](C)CC)C(C)C)C(C)C [Oct-Glu9] (Octanoyl-[dV][dDab]G[dS][dW]S[Dab][dDab]EEV[d(aIle)]A-OH) please.
Ans: >64 µg/mL
